# ASSAY SYSTEM: human TRPM8 (Homo sapiens, UniProt Q7Z2W7)
# Construct: expressed in transfected cells; host or cells: CHO (p658 mammalian expression vector)
# Sequence (Q7Z2W7 whole entry): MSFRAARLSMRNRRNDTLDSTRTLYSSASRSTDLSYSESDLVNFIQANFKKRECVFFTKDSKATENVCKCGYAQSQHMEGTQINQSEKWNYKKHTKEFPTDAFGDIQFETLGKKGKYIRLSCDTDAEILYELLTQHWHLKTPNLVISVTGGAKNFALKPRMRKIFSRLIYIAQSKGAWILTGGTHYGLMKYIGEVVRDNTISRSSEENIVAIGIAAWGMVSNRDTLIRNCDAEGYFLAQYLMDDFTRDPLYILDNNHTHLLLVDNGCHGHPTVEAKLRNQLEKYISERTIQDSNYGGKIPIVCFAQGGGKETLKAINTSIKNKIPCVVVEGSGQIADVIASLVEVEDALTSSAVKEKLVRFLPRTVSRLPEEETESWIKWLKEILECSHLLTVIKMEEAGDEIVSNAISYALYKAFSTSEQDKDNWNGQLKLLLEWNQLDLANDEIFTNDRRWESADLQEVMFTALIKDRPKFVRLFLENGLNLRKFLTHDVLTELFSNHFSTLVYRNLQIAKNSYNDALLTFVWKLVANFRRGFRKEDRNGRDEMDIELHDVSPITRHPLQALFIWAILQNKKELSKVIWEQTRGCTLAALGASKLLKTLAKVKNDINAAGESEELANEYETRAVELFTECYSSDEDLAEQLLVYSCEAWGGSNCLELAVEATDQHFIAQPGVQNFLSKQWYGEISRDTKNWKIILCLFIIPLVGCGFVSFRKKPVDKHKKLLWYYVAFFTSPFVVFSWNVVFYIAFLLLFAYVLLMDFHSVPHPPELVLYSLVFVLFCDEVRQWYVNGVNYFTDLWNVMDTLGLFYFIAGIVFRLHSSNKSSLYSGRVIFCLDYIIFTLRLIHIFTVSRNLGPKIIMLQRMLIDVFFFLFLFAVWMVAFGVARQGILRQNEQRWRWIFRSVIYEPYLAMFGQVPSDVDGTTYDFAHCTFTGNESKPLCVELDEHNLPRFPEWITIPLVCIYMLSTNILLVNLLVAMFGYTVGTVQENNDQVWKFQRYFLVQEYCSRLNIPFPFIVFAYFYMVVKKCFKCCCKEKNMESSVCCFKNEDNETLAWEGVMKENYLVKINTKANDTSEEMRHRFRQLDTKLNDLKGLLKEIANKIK
# ASSAY DETAILS: In vitro human TRPM8 fluorescence calcium flux assay (recombinant CHO cells, Fluo4-AM, FDSS6000)
# Type: cell-based
# EXPERIMENTAL CONTEXT: recombinant CHO cells expressing human TRPM8; menthol-related EC50, normalized to 100 μM menthol
pEC50: −log10 of the molar value.
MEASUREMENT TYPE: pEC50

The cases that follow already have their pEC50 on record.
COc1ccc(NC(=O)[C@]2(O)C[C@H](C)CC[C@H]2C(C)C)cc1 ... 6.93
CC(C)[C@@H]1CC[C@@H](C)C[C@@]1(O)C(=O)NCC(=O)c1ccc(Cl)cc1Cl ... 6.90
CC(C)[C@@H]1CC[C@@H](C)C[C@@]1(O)C(=O)NCC1OC(=O)c2ccccc21 (mixture of isomers) [Example 17] ... 6.39
CC(C)[C@@H]1CC[C@@H](C)C[C@@]1(O)C(=O)NCC(CO)c1ccccc1 (single isomer, unassigned) [Example 90] ... 7.38

P: CC(C)[C@@H]1CC[C@@H](C)C[C@@]1(O)C(=O)NCC1(O)CCc2ccccc21 (stereo partly drawn) [Example 23]
Q: CC(C)[C@@H]1CC[C@@H](C)C[C@@]1(O)C(=O)NCCc1cccc(O)c1
Which entry has a larger number for pEC50, P or Q ? Lab note: record the label of whichever item you select.
Q

I: CC(C)[C@@H]1CC[C@@H](C)C[C@@]1(O)C(=O)NC[C@@H](OCCO)c1ccccc1
II: COc1cc(C=O)ccc1OC(=O)CNC(=O)[C@]1(O)C[C@H](C)CC[C@H]1C(C)C
III: CC(C)[C@@H]1CC[C@@H](C)C[C@@]1(O)C(=O)NC(CCO)c1cccc(O)c1 (stereo partly drawn)
IV: COc1ccc2c(c1)OCC2CNC(=O)[C@]1(O)C[C@H](C)CC[C@H]1C(C)C (stereo partly drawn)
V: CC(C)[C@@H]1CC[C@@H](C)C[C@@]1(O)C(=O)NCC(=O)NCc1ccccc1
List items by pEC50 in falling order. Present the labels in the sequence the task asks for.
I, II, IV, III, V

P: CC(C)[C@@H]1CC[C@@H](C)C[C@@]1(O)C(=O)NCCCc1ccc(O)cc1
Q: CC(C)[C@@H]1CC[C@@H](C)C[C@@]1(O)C(=O)NCC1CCOc2ccccc21 (stereo partly drawn)
// returns P or Q , whichever has the lower pEC50 Lab note: record the label of whichever item you select.
P
(P: 7.23, Q: 7.73)

###

# ASSAY SYSTEM: pig TRPM8 (Sus scrofa, UniProt F1SM15)
# Construct: expressed in transfected cells; host or cells: CHO (pcDNA5/FRT/TO vector; hygromycin B and blasticidin selection)
# Sequence (F1SM15 1-1104): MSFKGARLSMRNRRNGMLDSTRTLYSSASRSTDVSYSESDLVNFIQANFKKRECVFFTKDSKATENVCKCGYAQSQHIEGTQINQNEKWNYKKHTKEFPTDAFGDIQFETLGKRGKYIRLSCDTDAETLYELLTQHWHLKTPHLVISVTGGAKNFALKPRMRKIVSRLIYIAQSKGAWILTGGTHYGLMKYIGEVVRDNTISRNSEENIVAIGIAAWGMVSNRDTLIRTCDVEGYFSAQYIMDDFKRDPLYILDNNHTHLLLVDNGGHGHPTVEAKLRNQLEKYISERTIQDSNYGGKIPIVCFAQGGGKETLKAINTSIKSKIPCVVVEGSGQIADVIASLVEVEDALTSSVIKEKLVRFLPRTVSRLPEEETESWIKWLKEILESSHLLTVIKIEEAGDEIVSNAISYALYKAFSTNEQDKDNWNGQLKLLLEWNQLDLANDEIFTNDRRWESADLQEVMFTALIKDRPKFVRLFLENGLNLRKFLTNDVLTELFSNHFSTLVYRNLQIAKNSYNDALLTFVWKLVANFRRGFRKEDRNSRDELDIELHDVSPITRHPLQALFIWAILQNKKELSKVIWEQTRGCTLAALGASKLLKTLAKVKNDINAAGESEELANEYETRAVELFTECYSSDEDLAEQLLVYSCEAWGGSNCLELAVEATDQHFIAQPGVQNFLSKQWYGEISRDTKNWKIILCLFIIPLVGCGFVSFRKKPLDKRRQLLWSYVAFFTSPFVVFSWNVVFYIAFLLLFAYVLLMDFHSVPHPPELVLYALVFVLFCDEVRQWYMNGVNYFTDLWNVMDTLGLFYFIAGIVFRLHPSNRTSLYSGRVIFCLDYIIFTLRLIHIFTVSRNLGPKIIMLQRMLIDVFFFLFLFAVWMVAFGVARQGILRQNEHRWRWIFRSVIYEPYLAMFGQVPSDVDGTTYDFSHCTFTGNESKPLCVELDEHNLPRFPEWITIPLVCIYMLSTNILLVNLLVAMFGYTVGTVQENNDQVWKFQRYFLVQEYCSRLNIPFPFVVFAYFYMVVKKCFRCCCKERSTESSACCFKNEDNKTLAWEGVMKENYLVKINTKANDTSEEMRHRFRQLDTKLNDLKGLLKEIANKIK
# ASSAY DETAILS: In vitro pig TRPM8 fluorescence calcium flux assay (recombinant CHO cells, Fluo4-AM, FDSS6000)
# Format: cell-based
# EXPERIMENTAL CONTEXT: recombinant CHO cells expressing pig TRPM8; menthol-related EC50, normalized to 100 μM menthol
MEASUREMENT TYPE: EC50 (µM)

CC(C)[C@@H]1CC[C@@H](C)C[C@@]1(O)C(=O)NCC(NC(=O)[C@H](C)N)c1ccccc1 (single isomer, unassigned) [Example 182] ... 0.0038

1: CC(C)[C@@H]1CC[C@@H](C)C[C@@]1(O)C(=O)N[C@@H]1CCc2ccc(O)cc2C1 [Example 171]
2: COc1ccc(CCNC(=O)[C@]2(O)C[C@H](C)CC[C@H]2C(C)C)cc1OC [Example 113]
// returns 1 or 2 , whichever has the lower EC50 Lab note: record the label of whichever item you select.
1
(1: 0.0061 µM, 2: 0.0935 µM)

a: CC(C)[C@@H]1CC[C@@H](C)C[C@@]1(O)C(=O)NCCCc1ccc(O)cc1 [Example 167]
b: CC(C)[C@@H]1CC[C@@H](C)C[C@@]1(O)C(=O)N[C@H]1COc2ccccc2C1 [Example 95]
// returns a or b , whichever has the lower EC50 Lab note: record the label of whichever item you select.
b
(b: 0.0031 µM, a: 0.0918 µM)

###

# ASSAY SYSTEM: pig TRPM8 (Sus scrofa)
# Construct: expressed in transfected cells; host or cells: CHO (pcDNA5/FRT/TO vector; hygromycin B and blasticidin selection)
# ASSAY DETAILS: In vitro pig TRPM8 fluorescence calcium flux assay (recombinant CHO cells, Fluo4-AM, FDSS6000)
# Type: cell-based
# EXPERIMENTAL CONTEXT: recombinant CHO cells expressing pig TRPM8; menthol-related EC50, normalized to 100 μM menthol
MEASUREMENT TYPE: EC50 (nM)

The cases that follow already have their EC50 on record.
CC(C)[C@@H]1CC[C@@H](C)C[C@@]1(O)C(=O)NCC(O)c1cccc(CO)c1 (some centres unmarked) [Example 37] ... 11
COc1cc(CO)ccc1OC(=O)CNC(=O)[C@]1(O)C[C@H](C)CC[C@H]1C(C)C [Example 79] ... 57.6
CC(C)[C@@H]1CC[C@@H](C)C[C@@]1(O)C(=O)NCC1(O)CCc2ccc(Cl)cc21 (some centres unmarked) [Example 145] ... 2.7

a: CC(C)[C@@H]1CC[C@@H](C)C[C@@]1(O)C(=O)NCC1(O)CCCc2ccccc21 (mixture of isomers) [Example 177]
b: CC(C)OC(=O)CNC(=O)[C@]1(O)C[C@H](C)CC[C@H]1C(C)C [Example 54]
c: CC(C)[C@@H]1CC[C@@H](C)C[C@@]1(O)C(=O)NC[C@@H](OCC(=O)O)c1ccccc1 [Example 55]
d: CC(C)[C@@H]1CC[C@@H](C)C[C@@]1(O)C(=O)NCC1CCOc2ccccc21 (some centres unmarked) [Example 103]
e: CC(C)[C@@H]1CC[C@@H](C)C[C@@]1(O)C(=O)NCC(=O)c1ccccc1O [Example 38]
Rank the items in ascending order with respect to EC50. Present the labels in the sequence the task asks for.
e, a, d, c, b

###

# ASSAY SYSTEM: human TRPM8 (Homo sapiens, UniProt Q7Z2W7)
# Construct: expressed in transfected cells; host or cells: CHO (p658 mammalian expression vector)
# ASSAY DETAILS: In vitro human TRPM8 fluorescence calcium flux assay (recombinant CHO cells, Fluo4-AM, FDSS6000)
# Format: cell-based
# EXPERIMENTAL CONTEXT: recombinant CHO cells expressing human TRPM8; menthol-related EC50, normalized to 100 μM menthol
Structures can show the parent of a compound that is named as a salt.
MEASUREMENT TYPE: EC50 (nM)

I: CC(C)[C@@H]1CC[C@@H](C)C[C@@]1(O)C(=O)NCC(CO)c1ccccc1 (stereo partly shown) [Example 70]
II: COC(=O)c1cccc(CCNC(=O)[C@]2(O)C[C@H](C)CC[C@H]2C(C)C)c1
III: CC(C)[C@@H]1CC[C@@H](C)C[C@@]1(O)C(=O)NCC(=O)c1ccccc1F
IV: CC(C)[C@@H]1CC[C@@H](C)C[C@@]1(O)C(=O)NCC(C(=O)OCCN)c1ccccc1 (stereo partly shown) [Example 71, hydrochloride]
V: CC(C)[C@@H]1CC[C@@H](C)C[C@@]1(O)C(=O)NCCc1ccc(O)cc1O
Which order do the items above take when sorted by EC50 from high to low? Present the labels in the sequence the task asks for.
II, V, I, III, IV

1: CC(C)[C@@H]1CC[C@@H](C)C[C@@]1(O)C(=O)NCC(NC(=O)[C@H](C)N)c1ccccc1 (single isomer, unassigned) [Example 182]
2: CC(C)[C@@H]1CC[C@@H](C)C[C@@]1(O)C(=O)NCCc1ccccc1OCCO
Which entry has a larger number for EC50, 1 or 2 ? Lab note: record the label of whichever item you select.
2
(2: 8.5 nM, 1: 3.7 nM)

###

# ASSAY SYSTEM: human TRPM8 (Homo sapiens)
# Construct: expressed in transfected cells; host or cells: CHO (p658 mammalian expression vector)
# ASSAY DETAILS: In vitro human TRPM8 fluorescence calcium flux assay (recombinant CHO cells, Fluo4-AM, FDSS6000)
# Format: cell-based
# EXPERIMENTAL CONTEXT: recombinant CHO cells expressing human TRPM8; menthol-related EC50, normalized to 100 μM menthol
pEC50: −log10 of the molar value. Counter-ions that a name gives are not always drawn.
MEASUREMENT TYPE: pEC50

The cases that follow already have their pEC50 on record.
CC(C)[C@@H]1CC[C@@H](C)C[C@@]1(O)C(=O)NC[C@@H](N)c1ccccc1 ... 9.40
CC(C)[C@@H]1CC[C@@H](C)C[C@@]1(O)C(=O)N[C@@H](CO)Cc1ccccc1 ... 6.19
CC(C)[C@@H]1CC[C@@H](C)C[C@@]1(O)C(=O)NCC(=O)c1cccc(O)c1O ... 8.96
CC(C)[C@@H]1CC[C@@H](C)C[C@@]1(O)C(=O)NCCc1cccc(S(N)(=O)=O)c1 ... 6.85
CC(C)[C@@H]1CC[C@@H](C)C[C@@]1(O)C(=O)NCCc1cccc(C(=O)OCCN)c1 [Example 16, hydrochloride] ... 7.80

I: CC(C)[C@@H]1CC[C@@H](C)C[C@@]1(O)C(=O)NCC(=O)c1cccc(F)c1F
II: COc1ccc(CCNC(=O)[C@]2(O)C[C@H](C)CC[C@H]2C(C)C)cc1O
III: CC(C)[C@@H]1CC[C@@H](C)C[C@@]1(O)C(=O)N[C@@H]1CCc2ccc(O)cc2C1
List items by pEC50 in falling order. Present the labels in the sequence the task asks for.
III, I, II
